test system: MALME-3M melanoma; test: NCI tumour cell line growth inhibition, 48 h
Assignment: determine reported TGI for the given compounds.
The answer is to be given in µM; state only the numeric part.

QUERY: Recorded TGI for COc1ccc2c(c1)-c1c(c3ccccc3n1CCN1CCCCC1)CC2 with MALME-3M melanoma, please?
RESULT: 39.3

QUERY: Recorded TGI for COc1cc(/C=C/C(=O)CC(=O)/C=C/c2ccc(OC(=O)CCNC34CC5CC(CC(C5)C3)C4)c(OC)c2)ccc1OC(=O)CCNC12CC3CC(CC(C3)C1)C2 with MALME-3M melanoma, please?
RESULT: 17.9

QUERY: Recorded TGI for C=C1C(=O)O[C@H]2[C@H]1CC/C(COC(=O)N[C@@H](Cc1c[nH]c3ccccc13)C(=O)OC)=C\CC[C@@]1(C)O[C@@H]21 with MALME-3M melanoma, please?
RESULT: 3.07

QUERY: Recorded TGI for O=C1C(Br)=C(c2ccccc2)C(c2ccccc2)=C1c1ccccc1 with MALME-3M melanoma, please?
RESULT: 3.33

QUERY: Recorded TGI for Cc1c(N(C(=O)c2cc(-c3cc(Cl)ccc3C(=O)N3Cc4ccccc4C[C@H]3CN3CCOCC3)n(C)c2C)c2ccc(O)cc2)cc(C#N)n1C with MALME-3M melanoma, please?
RESULT: 64.3

QUERY: Recorded TGI for O=c1oc2ccccc2c(O)c1C(c1ccc2ccccc2c1)c1c(O)c2ccccc2oc1=O with MALME-3M melanoma, please?
RESULT: 57.5

QUERY: Recorded TGI for Cc1c2c(cc3c1[nH]c1ccccc13)C(c1ccc(F)cc1)=NCC2 with MALME-3M melanoma, please?
RESULT: 4.91

QUERY: Recorded TGI for O=C(/C=C/c1ccc2c(c1)OCO2)c1ccccc1 with MALME-3M melanoma, please?
RESULT: 37.9

QUERY: Recorded TGI for O=C(Nc1nc(-c2ccc(Cl)cc2)cs1)c1ccc(O)c(O)c1 with MALME-3M melanoma, please?
RESULT: 22.2

QUERY: Recorded TGI for C[C@@H](Oc1cc(-c2cnn(C3CC4(CCNCC4)C3)c2)cnc1N)c1c(F)ccc(Cl)c1Cl with MALME-3M melanoma, please?
RESULT: 3.02

QUERY: Recorded TGI for Cc1ccc(-c2nc3nc(-c4ccc(Cl)cc4)nc(N4CCCNCC4)c3o2)cc1 with MALME-3M melanoma, please?
RESULT: 3.17

----------
Assignment: determine reported TGI for the given compounds.
system: LOX IMVI melanoma; assay: NCI tumour cell line growth inhibition, 48 h
The answer is to be given in µM; state only the numeric part.

QUERY: State the recorded TGI for this entry: CC(=O)C1=C(O)C2(O)C(=O)c3c(c(C)c4ccc(C)c(O)c4c3O)CC2C(N)C1=O (centres undefined)
RESULT: 11.4

QUERY: State the recorded TGI for this entry: Cc1cc(Nc2nc(N3CCOCC3)nc3ccccc23)n[nH]1
RESULT: 21.2

QUERY: State the recorded TGI for this entry: C=C1C(=O)O[C@H]2[C@H]1CC/C(Cn1cc(Cn3ccc4cc(Cl)ccc43)nn1)=C\CC[C@@]1(C)O[C@@H]21
RESULT: 2.88

QUERY: State the recorded TGI for this entry: O=C(Nc1nc(-c2ccc(Cl)cc2)cs1)c1ccc(O)c(O)c1
RESULT: 15.7

QUERY: State the recorded TGI for this entry: COc1cc(N)ccc1Nc1c2ccccc2nc2ccccc12
RESULT: 35.4

QUERY: State the recorded TGI for this entry: C=C1C(C2(C)C=CC(=O)OC3(C)COC(=O)CC32)C(OC=O)C(OC(=O)C(O)C(C)CC)C2(C)C(c3ccoc3)CC(OC(C)=O)C12O (centres undefined)
RESULT: 88.2

QUERY: State the recorded TGI for this entry: CCC/C(Cl)=N\OC(=O)Nc1ccc(Br)cc1
RESULT: 10.6

QUERY: State the recorded TGI for this entry: CN1CCN(CCCOc2ccc3ncnc(Nc4ccc(Oc5cccc(C(F)(F)F)c5)c(Cl)c4)c3c2)CC1
RESULT: 2.81

QUERY: State the recorded TGI for this entry: COc1ccc2cc(CNCCCN3CCN(CCCNCc4ccc5cc(OC)ccc5c4)CC3)ccc2c1
RESULT: 1.48

QUERY: State the recorded TGI for this entry: O=C(Nc1cccc(-c2nc3ccccc3[nH]2)c1)c1cccc(NC(=O)c2ccco2)c1
RESULT: 3.88

QUERY: State the recorded TGI for this entry: C[C@]12CC[C@H]3[C@@H](CC=C4C[C@@H](O)CC[C@@]43C)[C@@H]1C/C(=C\c1cccc(OCCCn3ccnc3)c1)[C@@H]2O
RESULT: 39.6

QUERY: State the recorded TGI for this entry: Cc1ccc(-c2nc3nc(-c4ccc(Cl)cc4)nc(N4CCCNCC4)c3o2)cc1
RESULT: 3.15

QUERY: State the recorded TGI for this entry: CN(C)CCNc1c([N+](=O)[O-])cc2c3c(cccc13)C(=O)N(CCN(C)C)C2=O
RESULT: 4.01

QUERY: State the recorded TGI for this entry: O=C(/C=C/c1ccc2c(c1)OCO2)c1ccccc1
RESULT: 25.9

QUERY: State the recorded TGI for this entry: COc1cc(/C=C2\C[C@H]3[C@@H]4CC=C5C[C@@H](OC(C)=O)CC[C@]5(C)[C@H]4CC[C@]3(C)[C@H]2OC(C)=O)ccc1OCCCn1ccnc1
RESULT: 14.9

QUERY: State the recorded TGI for this entry: COC1(OC)C[C@H](C)[C@@]23O[C@]24c2cc(O)c5c(c2N[C@H]3C#C/C=C\C#C[C@]14O)C(=O)c1ccccc1C5=O
RESULT: 0.049
